Target: C-C chemokine receptor type 2 (Homo sapiens)
Assay: Displacement of [125I]MCP-1 from human CCR2b expressed in CHO cells
Format: cell-based
resultType: IC50 (nM)
Numbers only, in nM.

- molecule: "CC(C)[C@@H](CCN1CCC2(C=Cc3ccccc32)CC1)C(=O)NCc1cc(C(F)(F)F)cc(C(F)(F)F)c1"
  IC50 / nM: 349
- molecule: "CC(C)[C@H](CCN1CCC2(C=Cc3ccccc32)CC1)C(=O)NCc1cc(C(F)(F)F)cc(C(F)(F)F)c1"
  IC50 / nM: 204
- molecule: "O=C(NCc1cc(C(F)(F)F)cc(C(F)(F)F)c1)C(CCN1CCC2(C=Cc3ccccc32)CC1)Cc1ccccc1 (stereo not drawn)"
  IC50 / nM: 298
- molecule: "C[C@H]1CN(CC[C@H](C(=O)NCc2cc(C(F)(F)F)cc(C(F)(F)F)c2)c2ccc(F)cc2)CC[C@@]12C=Cc1ccccc12"
  IC50 / nM: 67
- molecule: "COC(=O)NC(CCN1CCC2(C=Cc3ccccc32)CC1)C(=O)NCc1cc(C(F)(F)F)cc(C(F)(F)F)c1 (stereo not drawn)"
  IC50 / nM: 805

// for each molecule in input: emit IC50
1. C[C@H]1CN(CCCC(=O)NCc2cc(C(F)(F)F)cc(C(F)(F)F)c2)CC[C@@]12C=Cc1ccccc12
2. O=C1NCC(C(=O)NC(CCN2CCC3(C=Cc4ccccc43)CC2)C(=O)NCc2cc(C(F)(F)F)cc(C(F)(F)F)c2)N1 (stereo not drawn)
3. C=CC[C@H](CCN1CCC2(C=Cc3ccccc32)CC1)C(=O)NCc1cc(C(F)(F)F)cc(C(F)(F)F)c1

Solution:
1: 173; 2: 525; 3: 193

---

Biological target: C-C chemokine receptor type 2 (Homo sapiens, UniProt P41597)
Sequence (P41597 whole entry): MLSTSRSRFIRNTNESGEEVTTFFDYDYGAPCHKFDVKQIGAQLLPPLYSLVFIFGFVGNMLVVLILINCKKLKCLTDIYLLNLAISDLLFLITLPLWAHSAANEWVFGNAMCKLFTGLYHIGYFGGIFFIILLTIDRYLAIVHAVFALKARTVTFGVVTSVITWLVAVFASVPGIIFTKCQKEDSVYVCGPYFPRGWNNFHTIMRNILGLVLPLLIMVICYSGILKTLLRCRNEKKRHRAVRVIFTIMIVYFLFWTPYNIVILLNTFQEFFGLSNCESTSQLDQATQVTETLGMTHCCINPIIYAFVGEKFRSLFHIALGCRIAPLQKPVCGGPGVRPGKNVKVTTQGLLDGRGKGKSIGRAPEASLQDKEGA
Assay: Displacement of [125I]MCP-1 from human CCR2b expressed in CHO cells
Format: cell-based
What IC50 was measured for each of the following?
Quote the value and follow it with the unit of measurement.

- compound: "O=C(NCc1cc(C(F)(F)F)cc(C(F)(F)F)c1)[C@@H](CCN1CCC(c2ccc(F)cc2)CC1)C1CC1"
  IC50: "280 nM"

Your task in this section: give IC50 for each listed record.
1. C[C@H]1CN(CC[C@H](CC2CC2)C(=O)NCc2cc(C(F)(F)F)cc(C(F)(F)F)c2)CC[C@@]12C=Cc1ccccc12
2. C[C@@H](CCN1CCC2(C=Cc3ccccc32)CC1)C(=O)NCc1cc(C(F)(F)F)cc(C(F)(F)F)c1
3. O=C(CCCN1CCC2(C=Cc3ccccc32)CC1)NCc1cc(C(F)(F)F)cc(C(F)(F)F)c1
4. CC[C@H]1CN(CC[C@H](C(=O)NCc2cc(C(F)(F)F)cc(C(F)(F)F)c2)c2ccc(F)cc2)CC[C@@]12C=Cc1ccccc12

Solution:
25 nM
605 nM
570 nM
437 nM

For every record below, what is its IC50?
1. O=C(NCc1cc(C(F)(F)F)cc(C(F)(F)F)c1)[C@@H](CCN1CCC(c2ccccc2)CC1)C1CC1
2. C=CC[C@H](CCN1CCC(c2ccccc2)CC1)C(=O)NCc1cc(C(F)(F)F)cc(C(F)(F)F)c1

Solution:
["285 nM", "642 nM"]

Exercise: Need IC50 of O=C(NCc1cc(C(F)(F)F)cc(C(F)(F)F)c1)C(CCN1CCC2(C=Cc3ccccc32)CC1)C1CC1 (stereo not drawn) , thanks.
Solution: 69 nM
